# System: HCC1806
# ASSAY_OVERVIEW: Antiproliferative activity against human HCC1806 cells after 72 hrs by MTT assay
# Type: functional, cell-based
# EXPERIMENTAL_CONDITIONS: HCC1806, 72 h
QUANTITY_MEASURED: pIC50
Give bare numbers, as −log10 of the molar value.

[[record]]
chemical_smiles = "C=C1C(=O)[C@@]23C(=O)[C@@H]4OC[C@]5(C=CCC(C)(C)[C@@H]45)[C@@H]2CC[C@@H]1[C@H]3OC(=O)/C=C/c1ccc2occc2c1"
endpoint_result = 5.69

[[record]]
chemical_smiles = "C=C1C(=O)[C@@]23C(=O)[C@@H]4OC[C@]5(CCCC(C)(C)[C@@H]45)[C@@H]2CC[C@@H]1[C@H]3O"
endpoint_result = 5.69


Query "C=C1C(=O)[C@@]23C(=O)[C@@H]4OC[C@]5(C=CCC(C)(C)[C@@H]45)[C@@H]2CC[C@@H]1[C@H]3OC(=O)/C=C/c1ccsc1" yields pIC50 of 5.56

Entry source: ChEMBL document CHEMBL4627407
